# System: HepG2 liver cancer
# assay-remarks: MTT cytotoxicity assay, HepG2
# Format: cell-based, human
# condition-summary: HepG2 cell line, 72 h, mean ± s.d., three replicates
experimental-readout: IC50 (nM)
Reply with just the number (in nM).

-- ask Any idea what IC50 was measured for COc1c(O)cc2oc3cc(O)c(CC=C(C)C)c(O)c3c(=O)c2c1CC=C(C)C [α-mangostin, reference compound] ?
-- reply 240

###

# Tested on: A549 lung cancer
# assay-remarks: MTT cytotoxicity assay, A549
# Assay type: cell-based, human
# condition-summary: Homo sapiens, A549, 72 h
# Protocol: The cytotoxic activities against the cancer cell lines KB epidermal carcinoma, A549 lung cancer, HepG2 liver cancer and MCF-7 breast cancer, as well as the healthy cell line HEK293 embryonic kidney cells, were determined using the 3-(4,5-dimethylthiazol-2-yl)-2,5-diphenyltetrazolium bromide (MTT) assay. […] Dimethyl sulfoxide (100 µl) was added to dissolve formazan crystals and the density was measured at 540 nm using a BioTek spectrophotometer. […]
experimental-readout: IC50 (nM)
Reply with just the number (in nM).

-- ask Form field: IC50 recorded for Cc1c2ccncc2c(C)c2c1[nH]c1ccccc12 [ellipticine, reference compound] with A549 lung cancer (enter value)
-- reply 1260

###

# Tested on: HEK293 embryonic kidney cells
# assay-remarks: MTT cytotoxicity assay, HEK293
# Format: cell-based, human
# condition-summary: Homo sapiens, HEK293 healthy cell line, 72 h, mean ± s.d., three replicates
# Description: The cytotoxic activities against the cancer cell lines KB epidermal carcinoma, A549 lung cancer, HepG2 liver cancer and MCF-7 breast cancer, as well as the healthy cell line HEK293 embryonic kidney cells, were determined using the 3-(4,5-dimethylthiazol-2-yl)-2,5-diphenyltetrazolium bromide (MTT) assay. […] Dimethyl sulfoxide (100 µl) was added to dissolve formazan crystals and the density was measured at 540 nm using a BioTek spectrophotometer. […]
experimental-readout: IC50 (µM)
Reply with just the number (in µM).

Example cases with answers are listed next.
{"molecule": "Cc1c2ccncc2c(C)c2c1[nH]c1ccccc12 [ellipticine, reference compound]", "data-value": 4.39}
{"molecule": "COc1cc2oc3cc(O)c(OC)c(CC=C(C)C)c3c(=O)c2c(O)c1CC=C(C)C", "data-value": 15.6}

Attention now turns to another entry.
-- ask Any idea what IC50 was measured for COc1cc2oc3cc(OC4CC(O)C(O)C(CO)O4)c(OC)c(CC=C(C)C)c3c(=O)c2c(O)c1CC=C(C)C (stereo not shown) ?
-- reply 84.1
